B1: LINE1-mini (parent)
chain: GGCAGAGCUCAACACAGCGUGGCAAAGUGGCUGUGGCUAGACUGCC

variants of: B1; assay: self-cleavage, relative activity (ratio to wild type); higher = more cleavage; in vitro, sequencing; the parent is a self-cleaving ribozyme
Kindly return label 1 if reported self-cleavage is no lower than 0.07; return label 0 if it is lower.

GGCAGAGCUCAACACAGCGCGGCAAAGUGGCUGUGGCUCGACUGCC [U20C A39C] = label 1
GGCAGAGCUCAACACAGCGUGGCCAAGUGACUGUGGCUAGACUGCC [A24C G30A] = label 1
GGCAGAGCGCAACACAACGUGGCAAAGUGGCUGUGGCUAGACUGCC [U9G G17A] = label 1
GGAAGAGCUCAACACAGCGUGGCAUAGUGGCUGUGGCUAGACUGCC [C3A A25U] = label 1
GGCAGAGCUUAACACAGCGUGGCAAAGUGGCUGUGGCUAGACUGGC [C10U C45G] = label 1
GGCCGAGCUCAACACAGCGUGACAAAGUGGCUGUGGCUAGACUGCC [A4C G22A] = label 1
GGCAGAGCUCAACACAGCGUGGCAAAGUGGCUGAGGCUAGAUUGCC [U34A C42U] = label 0
CGCAGAGCUCAACACAGCGUGGCAAAGUGGCUGUGGGUAGACUGCC [G1C C37G] = label 0

input: Quick check: does GGCGGAGGUCAACACAGCGUGGCAAAGUGGCUGUGGCUAGACUGCC [A4G C8G] have self-cleavage greater than or equal to 0.07?
output: label 1

input: Input GGCAGAGCUCAACACAGCGUGGCAAAGUGCCUGUGGCUAGAGUGCC [G30C C42G]
output: label 0
